Target: Recombinant human IL-1β (BioLegend 579404) (human, UniProt P01584 117-269)
Test: cell-based or functional assay
Starred links: 1 amine or outer side, 2 acyl side, 3 side chain; linkers in the order of their positions; H or OH if unused. Non-standard residues stand in square brackets, D forms with d. No end group written: not given here. dProc3CH24Pal = (2R,3S)-3-(4-pyridylmethyl)pyrrolidine-2-carboxylic acid, O=C([C@H]1[C@@H](Cc2ccncc2)CCN1[*:1])[*:2]; Phe(4-(4-Ac-piperazinyl)) = CC(=O)N1CCN(c2ccc(C[C@H](N)C(=O)O)cc2)CC1; dPro(4R-(4-pyridylmethyl)) = O=C(O)[C@H]1C[C@@H](Cc2ccncc2)CN1; Trp(βS-Me,4-F) = C[C@@H](c1c[nH]c2cccc(F)c12)[C@H](N)C(=O)O; Bip(4'-COOH) = N[C@@H](Cc1ccc(-c2ccc(C(=O)O)cc2)cc1)C(=O)O; Ala(1-bicyclo(1.1.1)pentyl) = N[C@@H](CC12CC(C1)C2)C(=O)O; dPro(4R-Bzl(4-F)) = O=C(O)[C@H]1C[C@@H](Cc2ccc(F)cc2)CN1; Ala(pyrimidin-5-yl) = N[C@@H](Cc1cncnc1)C(=O)O; Phe(4-COOH) = N[C@@H](Cc1ccc(C(=O)O)cc1)C(=O)O; Pro(cis-4-F) = O=C(O)[C@@H]1C[C@H](F)CN1; Ala(4-THP) = N[C@@H](CC1CCOCC1)C(=O)O; d(αMeD) = C[C@@](N)(CC(=O)O)C(=O)O; hPhe = N[C@@H](CCc1ccccc1)C(=O)O; 4Pal = N[C@@H](Cc1ccncc1)C(=O)O; d(αMeS) = C[C@@](N)(CO)C(=O)O; Dab = NCC[C@H](N)C(=O)O; Aib = CC(C)(N)C(=O)O
Items are presented alongside their recorded MRC5 IC50.
Just the number please, in pM, no unit attached.

Some entries whose results are on file:
{"BINDER": "[Phe(4-(4-Ac-piperazinyl))][4Pal][Phe(4-COOH)]G[Pro(cis-4-F)][Trp(βS-Me,4-F)][Aib]SW[Aib][Ala(pyrimidin-5-yl)]Q[Dab]G[dPro(4R-Bzl(4-F))] (lactam (positions not given here); also: macrolactam ring, closure sites not given here) [SEQ ID NO: 183]", "MRC5 IC50, pM": 25}
{"BINDER": "[Bip(4'-COOH)][4Pal][Phe(4-COOH)]G[Pro(cis-4-F)][Trp(βS-Me,4-F)][Aib]SW[d(αMeD)][hPhe]Q[Dab]G[dProc3CH24Pal] (lactam (positions not given here); also: macrolactam, ring places not given here) [SEQ ID NO: 221]", "MRC5 IC50, pM": 20}

Kindly consider the entry below.
For record cyclo([Bip(4'-COOH)][Ala(1-bicyclo(1.1.1)pentyl)][Phe(4-COOH)]G[Pro(cis-4-F)][Trp(βS-Me,4-F)][Aib]SW[d(αMeS)][Ala(4-THP)]Q[Dab]G[dPro(4R-(4-pyridylmethyl))]) (ring closure inferred; not fully specified (bridges); printed as Bip4CO2H-AlaPent-Phe4COOH-G-Proc4F-SbMeW4F-Aib-S-W-daMeS-AlaTHP4-Q-Dab-G-dProc4CH24Pal, cyclic (macrolactam)) [SEQ ID NO: 204] the listed MRC5 IC50 is 17
